experimental-protocol: CCK-8 viability assay
Assay type: cell-based
condition-notes: human, primary human chondrocytes; read-out: Mean % relative viability
quantity-name: viability at 72 h, 10 µM (%)

>>> test_result("C[C@@H]1O[C@@H](O[C@H]2[C@H](Oc3cc(O)c4c(c3)O[C@H](c3ccc(O)cc3)CC4=O)O[C@H](CO)[C@@H](O)[C@@H]2O)[C@H](O)[C@H](O)[C@H]1O [S1 [NAR], Naringin]")
136

----------
experimental-protocol: CCK-8 viability assay
Assay type: cell-based
condition-notes: human, primary human chondrocytes; read-out: Mean % relative viability
quantity-name: viability at 72 h, 50 µM (%)

>>> test_result("C[C@@H]1O[C@@H](O[C@H]2[C@H](Oc3cc(O)c4c(c3)O[C@H](c3ccc(O)cc3)CC4=O)O[C@H](CO)[C@@H](O)[C@@H]2O)[C@H](O)[C@H](O)[C@H]1O [S1 [NAR], Naringin]")
130

Reference source for all entries: patent EP4385495A1
